Test system: HCV 1b_Huh-Luc/Neo-ET cell line persistently expressing a bicistronic genotype 1b replicon in Huh 7 cells
Assay: HCV replicon assay (luciferase readout)
Format: cell-based
Conditions: Hepatitis C virus, Huh-7, 72 h, read-out: Inhibition of HCV genotype 1b
value.kind: EC50

Previously resolved entries follow.
molecule.smiles: CNC(=O)N[C@@H](C(=O)N1CCC[C@H]1c1ncc(-c2ccc(C#Cc3ccc(-c4cnc([C@@H]5CCCN5C(=O)[C@H](NC(=O)C5CC5)c5ccccc5)[nH]4)cc3)cc2)[nH]1)c1ccccc1
value.kind: EC50
recorded.value: < 1 nM

molecule.smiles: CC(C)(C)OC(=O)N[C@@H](C(=O)N1CCC[C@H]1c1ncc(-c2ccc(C#Cc3ccc(-c4nnc([C@@H]5CCCN5C(=O)[C@H](NC(=O)OC(C)(C)C)c5ccccc5)[nH]4)cc3)cc2)[nH]1)c1ccccc1
value.kind: EC50
recorded.value: < 1 nM

molecule.smiles: CN1CCN(C(=O)N[C@@H](C(=O)N2CCC[C@H]2c2ncc(-c3ccc(C#Cc4ccc(-c5cnc([C@@H]6CCCN6C(=O)[C@H](NC(=O)N6CCN(C)CC6)c6ccccc6)[nH]5)cc4)cc3)[nH]2)c2ccccc2)CC1
value.kind: EC50
recorded.value: < 1 nM

Okay, now this compound:
Prompt line: Give the measured EC50 for COC(=O)N[C@@H](CCC(=O)O)C(=O)N1CCC[C@H]1c1ncc(-c2ccc(C#Cc3ccc4nc([C@@H]5CCCN5C(=O)[C@H](CCC(=O)O)NC(=O)OC)[nH]c4c3)cc2)[nH]1
Response line: 10 to 999 nM

====

Test system: HCV 1b_Huh-Luc/Neo-ET cell line persistently expressing a bicistronic genotype 1b replicon in Huh 7 cells
Assay: HCV replicon assay (luciferase readout)
Type: cell-based
Conditions: Hepatitis C virus, Huh-7, 72 h, read-out: Inhibition of HCV genotype 1b
pEC50: −log10 of the molar value.
value.kind: pEC50

molecule.smiles: COC(=O)N[C@@H](C(=O)N1CCC[C@H]1c1ncc(-c2ccc(C#Cc3ccc(-c4cnc([C@@H]5CCCN5C(=O)[C@H](C)c5ccccc5)[nH]4)cc3)cc2)[nH]1)c1ccccc1
pEC50: > 9.00

Prompt line: Kindly indicate its recorded pEC50. Item: CC(C)[C@@H](NC(=O)OC(C)(C)C)C(=O)N1CCC[C@H]1C(=O)Nc1ccc(C#Cc2cnc([C@@H]3CCCN3C(=O)[C@H](NC(=O)OC(C)(C)C)C(C)C)[nH]2)cc1
Response line: 6.00 to 8.00

Prompt line: Answer with reported pEC50 of CC(C)OC(=O)N[C@@H](C(=O)N1CCC[C@H]1c1ncc(-c2ccc(C#Cc3ccc(-c4cnc([C@@H]5CCCN5C(=O)[C@H](NC(=O)OC(C)C)c5ccccc5)[nH]4)cc3)cc2)[nH]1)c1ccccc1
Response line: > 9.00

Prompt line: Give the reported value of pEC50 for this record: O=C(N[C@@H](C(=O)N1CCC[C@H]1c1ncc(C#Cc2ccc(-c3cnc([C@@H]4CCCN4C(=O)[C@H](NC(=O)C4CC4)c4ccccc4)[nH]3)cc2)[nH]1)c1ccccc1)C1CC1
Response line: > 9.00

Prompt line: // Input: COC(=O)N[C@@H](Cc1ccccc1)C(=O)N1CCC[C@H]1c1ncc(-c2ccc(C#Cc3ccc4nc([C@@H]5CCCN5C(=O)[C@H](Cc5ccccc5)NC(=O)OC)[nH]c4c3)cc2)[nH]1 . Output its pEC50 only.
Response line: > 9.00

Prompt line: Return reported pEC50. Input compound: COC(=O)N[C@H](C(=O)N1CCC[C@H]1c1ncc(-c2ccc(C#Cc3ccc(-c4cnc([C@@H]5CCCN5C(=O)[C@@H](NC(=O)OC)C(C)(C)O)[nH]4)cc3)cc2)[nH]1)C(C)(C)O
Response line: > 9.00

Hey, just so you know, these numbers are from patent US8865756B2.
